Attribution: patent US10329304B2

tested.on: PDE4D (Homo sapiens, UniProt Q08499)
Sequence (Q08499 whole entry): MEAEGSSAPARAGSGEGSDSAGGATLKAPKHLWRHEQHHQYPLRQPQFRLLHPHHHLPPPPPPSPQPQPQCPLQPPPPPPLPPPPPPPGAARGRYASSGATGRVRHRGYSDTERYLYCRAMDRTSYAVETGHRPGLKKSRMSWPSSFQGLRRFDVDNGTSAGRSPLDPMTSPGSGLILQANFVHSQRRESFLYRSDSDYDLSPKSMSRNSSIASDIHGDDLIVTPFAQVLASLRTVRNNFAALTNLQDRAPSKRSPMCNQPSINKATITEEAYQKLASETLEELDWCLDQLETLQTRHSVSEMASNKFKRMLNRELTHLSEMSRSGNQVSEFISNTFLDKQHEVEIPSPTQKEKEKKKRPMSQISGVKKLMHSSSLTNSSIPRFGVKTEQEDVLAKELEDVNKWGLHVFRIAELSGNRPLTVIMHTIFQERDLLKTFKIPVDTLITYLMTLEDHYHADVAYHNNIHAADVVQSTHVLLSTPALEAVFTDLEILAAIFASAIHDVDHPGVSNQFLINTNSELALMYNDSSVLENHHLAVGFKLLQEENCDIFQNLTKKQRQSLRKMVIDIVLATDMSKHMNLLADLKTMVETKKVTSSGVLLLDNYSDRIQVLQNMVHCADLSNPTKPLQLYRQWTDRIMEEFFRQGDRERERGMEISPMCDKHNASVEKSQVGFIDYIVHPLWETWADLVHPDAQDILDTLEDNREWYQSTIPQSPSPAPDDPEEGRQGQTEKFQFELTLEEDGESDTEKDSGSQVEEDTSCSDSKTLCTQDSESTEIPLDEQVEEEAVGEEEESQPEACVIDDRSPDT
procedure.details: PDE4 inhibition assay (PDE4D IC50)
Assay type: biochemical
protocol.conditions: mean ± SEM, normalized to DMSO; read-out: PDE4D IC50
quantity.name: IC50 (nM)
Please state the figure in nM; there is no need to write the unit.

**Q:** Any idea what IC50 was measured for O=c1c2ccsc2nc(SCC(O)c2ccccc2)n1C1CC1 (stereo not shown) [Formula 20a] ?
**A:** 6070

**Q:** Any idea what IC50 was measured for CCCn1c(SCC(=O)c2cccs2)nc2sc3c(c2c1=O)CCCC3 [Formula 9e] ?
**A:** 486

**Q:** Any idea what IC50 was measured for C=C(C)Cn1c(SCC(=O)c2cccs2)nc2sc3c(c2c1=O)CCCC3 [Formula 3] ?
**A:** 380

Further cases:
**Q:** Any idea what IC50 was measured for C=C(C)Cn1c(SCC(=O)c2ccccc2)nc2sc3c(c2c1=O)CCCC3 [Formula 9g] ?
**A:** 965

---

Tested on: RWGT2
procedure.details: Cell viability assay (CellTiter-Blue, 72 hr)
Format: cell-based, Human
protocol.conditions: human cancer cells; read-out: CELL KILLING EC50 (μM) Lung Squam, NSCLC RWGT2
quantity.name: EC50
Answer with the figure and its unit, nothing else.

Study these solved cases before continuing.
**Q:** Any idea what EC50 was measured for C=C(C)Cn1c(SCC(=O)c2ccncc2)nc2sc3c(c2c1=O)CCCC3 ?
**A:** 40.2 µM

**Q:** Any idea what EC50 was measured for C=C(C)Cn1c(SCC(=O)c2cccs2)nc2sc3c(c2c1=O)CCCC3 ?
**A:** 6.87 µM

**Q:** Any idea what EC50 was measured for C=C(C)Cn1c(SCC(=O)c2nccs2)nc2sc3c(c2c1=O)CCCC3 ?
**A:** 27.6 µM

**Q:** Any idea what EC50 was measured for C=CCn1c(SCC(=O)c2ccccc2)nc2scc(-c3ccccc3)c2c1=O ?
**A:** 64.9 µM

**Q:** Any idea what EC50 was measured for C=CCn1c(SCC(=O)N2CCN(C)CC2)nc2sc3c(c2c1=O)CCCC3 ?
**A:** 28.4 µM

Further cases:
**Q:** Any idea what EC50 was measured for C=C(C)Cn1c(SCC(=O)c2ccc(-c3ccccc3)cc2)nc2sc3c(c2c1=O)CCCC3 ?
**A:** 80.9 µM

---

inhibition at 10 µM by entry:
Tested on: Gli1 mRNA
procedure.details: Hh % Inh.: SAG-induced Gli1 expression in C3H10T½ cells (qPCR)
Type: cell-based
protocol.conditions: Mus musculus, C3H 10T1/2; 10 pM [sic]; SAG-induced (100 nM), 24 hours; read-out: C3H10T1/2 qPCR, Gh1 mRNA % Inh., 10 pM
Please state the figure in %; there is no need to write the unit.

Study these solved cases before continuing.
**Q:** Any idea what inhibition at 10 µM was measured for C=C(C)Cn1c(SCC(=O)N2CCCCC2C)nc2sc3c(c2c1=O)CCCC3 (centres unmarked) [JEH-3-069-2] ?
**A:** 97.6

**Q:** Any idea what inhibition at 10 µM was measured for C=C(C)Cn1c(SCC(=O)c2cccs2)nc2sc3c(c2c1=O)CCNC3 [JEH-1-064] ?
**A:** 64.1

**Q:** Any idea what inhibition at 10 µM was measured for C=C(C)Cn1c(SCC(=O)c2cccnc2)nc2sc3c(c2c1=O)CCCC3 [JEH-3-045-3] ?
**A:** 43.6

Further cases:
**Q:** Any idea what inhibition at 10 µM was measured for C=C(C)Cn1c(SCC(=O)c2ccncc2)nc2sc3c(c2c1=O)CCCC3 [JEH-3-048-1] ?
**A:** 28.7

**Q:** Any idea what inhibition at 10 µM was measured for C=C(C)Cn1c(SCC(=O)c2cccs2)nc2sc3ccccc3c2c1=O [JEH-4-006] ?
**A:** 79.3

---

inhibition at 10 µM by entry:
Test system: Gli1 mRNA
procedure.details: Hh % Inh.: SAG-induced Gli1 expression in C3H10T½ cells (qPCR)
Format: cell-based
protocol.conditions: Mus musculus, C3H 10T1/2; 10 pM [sic]; SAG-induced (100 nM), 24 hours; read-out: C3H10T1/2 qPCR, Gh1 mRNA % Inh., 10 pM
Method: Compounds are dosed from 10 mM DMSO stock solutions, and mRNA is isolated after 24 hours of compound treatment. mRNA is reverse transcribed to produce cDNA which is quantified by quantitative polymerase chain reaction (qPCR) in triplicate and levels are normalized to GAPDH levels. Data is presented as percent inhibition compared to positive control (SAG).
Please state the figure in %; there is no need to write the unit.

Study these solved cases before continuing.
**Q:** Any idea what inhibition at 10 µM was measured for CC(C)Cn1c(SCC(=O)c2cccs2)nc2sc3c(c2c1=O)CCCC3 ?
**A:** 102

**Q:** Any idea what inhibition at 10 µM was measured for O=C(CSc1nc2sc3c(c2c(=O)n1CC1CCC1)CCCC3)c1cccs1 ?
**A:** 67.2

**Q:** Any idea what inhibition at 10 µM was measured for CC(C)n1c(SCC(=O)c2cccs2)nc2sc3c(c2c1=O)CCCC3 ?
**A:** 101

**Q:** Any idea what inhibition at 10 µM was measured for O=C(CSc1nc2sc3c(c2c(=O)n1Cc1ccccc1)CCCC3)c1cccs1 ?
**A:** 18.3

**Q:** Any idea what inhibition at 10 µM was measured for C=C(C)Cn1c(SCC(=O)c2cccs2)nc2sc3c(c2c1=O)CCCC3 ?
**A:** 92.7

**Q:** Any idea what inhibition at 10 µM was measured for C=C(C)Cn1c(SCC(=O)N2CCCC(C)C2)nc2sc3c(c2c1=O)CCCC3 (stereo not drawn) ?
**A:** 106

Further cases:
**Q:** Any idea what inhibition at 10 µM was measured for O=C(CSc1nc2sc3c(c2c(=O)n1CC1CC1)CCCC3)c1cccs1 ?
**A:** 81.6

**Q:** Any idea what inhibition at 10 µM was measured for C=C(C)Cn1c(SCC(=O)c2cccn2C)nc2sc3c(c2c1=O)CCCC3 ?
**A:** 89.1

**Q:** Any idea what inhibition at 10 µM was measured for O=C(CSc1nc2sc3c(c2c(=O)n1-c1ccccc1)CCCC3)c1cccs1 ?
**A:** 85.3

**Q:** Any idea what inhibition at 10 µM was measured for C=C(C)Cn1c(SCC(=O)c2ccccn2)nc2sc3c(c2c1=O)CCCC3 ?
**A:** 35.4

**Q:** Any idea what inhibition at 10 µM was measured for C=CCn1c(SCC(=O)c2cccs2)nc2sc3c(c2c1=O)CCCC3 ?
**A:** 66.5

**Q:** Any idea what inhibition at 10 µM was measured for C=C(C)Cn1c(SCC(=O)c2ccccc2)nc2sc3c(c2c1=O)CCCC3 ?
**A:** 95.4

**Q:** Any idea what inhibition at 10 µM was measured for CC(C)(C)Cn1c(SCC(=O)c2cccs2)nc2sc3c(c2c1=O)CCCC3 ?
**A:** 84.8

---

System: Hedgehog signaling (TM3-Gli-Luc)
procedure.details: TM3-Gli-Luc luciferase reporter assay stimulated with 20 nM SAG
Assay type: cell-based
protocol.conditions: 20 nM SAG; read-out: EC50
quantity.name: pEC50
# pEC50: negative log10 of molar concentration; output just the value

**Q:** Any idea what pEC50 was measured for C=C(C)Cn1c(SCC(=O)c2cccs2)nc2sc3c(c2c1=O)CCCC3 ?
**A:** 5.87

# context switch: different compound, same pEC50
**Q:** Any idea what pEC50 was measured for O=C(CSc1nc2ccccc2c(=O)n1C1CC1)c1cccs1 [Formula 14b] ?
**A:** 6.16

---

System: SW480
procedure.details: Cell viability assay (CellTiter-Blue, 72 hr)
Format: cell-based, Human
protocol.conditions: 72 h, read-out: EC50 (50% reduction of viable cell count at 72 hours); SW480, Human Colorectal Adenocarcinoma
quantity.name: EC50 (nM)
Please state the figure in nM; there is no need to write the unit.

**Q:** Any idea what EC50 was measured for C=CCn1c(SCC(=O)N2CCN(C)CC2)nc2sc3c(c2c1=O)CCCC3 ?
**A:** 57

---

tested.on: PDE4D3 (Homo sapiens, UniProt Q08499)
Construct: purchased BPS Biosciences (San Diego, Calif.); kinetic studies by Millipore (St. Louis, Mo.)
Sequence (Q08499 1-673 isoform Q08499-2): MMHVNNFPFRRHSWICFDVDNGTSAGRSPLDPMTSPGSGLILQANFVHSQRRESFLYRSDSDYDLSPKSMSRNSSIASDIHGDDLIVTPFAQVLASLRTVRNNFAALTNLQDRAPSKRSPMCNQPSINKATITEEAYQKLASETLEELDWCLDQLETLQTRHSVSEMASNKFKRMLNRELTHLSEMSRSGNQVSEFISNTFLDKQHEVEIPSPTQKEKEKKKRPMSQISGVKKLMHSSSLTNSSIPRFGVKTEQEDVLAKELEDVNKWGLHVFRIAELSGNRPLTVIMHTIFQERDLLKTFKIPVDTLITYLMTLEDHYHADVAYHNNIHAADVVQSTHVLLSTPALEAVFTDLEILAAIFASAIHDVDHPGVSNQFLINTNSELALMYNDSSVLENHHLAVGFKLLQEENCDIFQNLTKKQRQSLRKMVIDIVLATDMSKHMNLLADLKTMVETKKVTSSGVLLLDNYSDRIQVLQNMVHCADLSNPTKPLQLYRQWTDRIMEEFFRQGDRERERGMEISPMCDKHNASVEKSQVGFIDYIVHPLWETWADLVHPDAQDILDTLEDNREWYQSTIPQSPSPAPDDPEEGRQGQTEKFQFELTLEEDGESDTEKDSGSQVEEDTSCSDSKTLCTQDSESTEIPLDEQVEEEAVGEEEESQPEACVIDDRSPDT
procedure.details: In vitro PDE assay
Type: biochemical
protocol.conditions: Table 9A
quantity.name: pIC50
# pIC50: negative log10 of molar concentration; output just the value

Study these solved cases before continuing.
**Q:** Any idea what pIC50 was measured for C=C(C)Cn1c(SCC(=O)c2nccs2)nc2sc3c(c2c1=O)CCCC3 ?
**A:** 4.82

**Q:** Any idea what pIC50 was measured for C=CCn1c(SCC(=O)c2ccccn2)nc2sc3c(c2c1=O)CCCC3 ?
**A:** 4.21

**Q:** Any idea what pIC50 was measured for O=C(CSc1nc2sc3c(c2c(=O)n1CC1CC1)CCCC3)c1cccs1 ?
**A:** 6.00

Further cases:
**Q:** Any idea what pIC50 was measured for C=C(C)Cn1c(SCC(=O)N2CCCC[C@H]2C)nc2sc3c(c2c1=O)CCCC3 ?
**A:** 5.77

**Q:** Any idea what pIC50 was measured for C=C(C)Cn1c(SCC(=O)c2cccs2)nc2sc3c(c2c1=O)CCCC3 ?
**A:** 5.96
